Test: Solubility of the compound by spectrofluorimetric detection-based shake-flask method
Format: physicochemical
experimental-endpoint: solubility thermodynamic (µg/mL)
// return numeric value only (unit: µg/mL, not printed)

The molecule identified as CC(=O)O[C@H]1C[C@H]2[C@@H]([C@H](OC(C)=O)C[C@@H]3C[C@H](N)CC[C@@]32C)[C@@H]2CC[C@H]([C@H](C)CCCNCCCCNc3ccnc4cc(Cl)ccc34)[C@@]12C registered its solubility thermodynamic at 640

###

Biological target: Cytochrome P450 2C19 (Homo sapiens)
Sequence (P33261 whole entry): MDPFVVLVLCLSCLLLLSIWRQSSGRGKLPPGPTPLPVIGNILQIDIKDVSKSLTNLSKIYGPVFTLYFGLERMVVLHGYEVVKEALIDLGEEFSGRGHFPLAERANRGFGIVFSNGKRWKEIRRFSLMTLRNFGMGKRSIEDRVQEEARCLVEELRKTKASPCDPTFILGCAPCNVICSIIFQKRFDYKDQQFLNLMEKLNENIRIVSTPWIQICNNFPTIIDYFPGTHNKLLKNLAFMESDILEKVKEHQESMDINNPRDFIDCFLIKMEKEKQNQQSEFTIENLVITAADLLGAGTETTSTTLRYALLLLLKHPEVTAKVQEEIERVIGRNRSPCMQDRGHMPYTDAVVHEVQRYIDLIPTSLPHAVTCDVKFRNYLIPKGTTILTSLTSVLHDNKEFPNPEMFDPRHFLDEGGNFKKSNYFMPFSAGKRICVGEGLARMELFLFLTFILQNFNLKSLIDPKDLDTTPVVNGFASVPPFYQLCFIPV
experimental-endpoint: IC50 (µM)
# unit: µM | format: bare number

The molecule listed as CC(=O)O[C@H]1C[C@H]2[C@@H]([C@H](OC(C)=O)C[C@@H]3C[C@H](N)CC[C@@]32C)[C@@H]2CC[C@H]([C@H](C)CCCNCCCCNc3ccnc4cc(Cl)ccc34)[C@@]12C shows IC50 equal to 5

###

Target: Botulinum neurotoxin type A (Clostridium botulinum) (UniProt P0DPI0)
Experiment: Inhibition of Clostridium botulinum BoNT/A holotoxin-mediated SNAP-25 cleavage in mouse HBG3 cell-derived motor neurons assessed as full length of SNAP-25 at 20 uM treated at 60 mins post intoxication by Western blot method relative to control
Design: scale not given: the % may be the effect or the level left
Below, each entry is listed alongside its reported Activity.
Please respond with the number in % and leave the unit unwritten.

Past entries and their recorded results:
CC(=O)O[C@H]1C[C@H]2[C@@H]([C@H](OC(C)=O)C[C@@H]3C[C@H](N)CC[C@@]32C)[C@@H]2CC[C@H]([C@H](C)CCCNCCCCNc3ccnc4ccccc34)[C@@]12C :: 49
N#Cc1ccc(-c2ccc(-c3ccc(CNCCCCCCCCNc4ccnc5ccccc45)cc3)s2)cc1 :: 19
CC(=O)O[C@H]1C[C@H]2[C@@H]([C@H](OC(C)=O)C[C@@H]3C[C@H](N)CC[C@@]32C)[C@@H]2CC[C@H]([C@H](C)CCCNCCCC(C)Nc3ccnc4ccccc34)[C@@]12C (mixture of isomers) :: 22
CC(=O)O[C@H]1C[C@H]2[C@@H]([C@H](OC(C)=O)C[C@@H]3C[C@H](N)CC[C@@]32C)[C@@H]2CC[C@H]([C@H](C)CCCNC(C)CCCNc3ccnc4ccccc34)[C@@]12C (mixture of isomers) :: 22
CC(=O)O[C@H]1C[C@H]2[C@@H]([C@H](OC(C)=O)C[C@@H]3C[C@H](NCCCCCCNc4ccnc5cc(Cl)ccc45)CC[C@@]32C)[C@@H]2CC[C@H]([C@H](C)CCCNCCCCCCNc3ccnc4cc(Cl)ccc34)[C@@]12C :: 20

Activity in this record for CN(CCCCCCCCNc1ccnc2ccccc12)Cc1ccc(-c2ccc(-c3ccc(C#N)cc3)s2)cc1 : 22

What the record says about CC(=O)O[C@H]1C[C@H]2[C@@H]([C@H](OC(C)=O)C[C@@H]3C[C@H](N)CC[C@@]32C)[C@@H]2CC[C@H]([C@H](C)CCCNCCCCNc3ccnc4cc(Cl)ccc34)[C@@]12C : Activity is 45

Activity in this record for CC(CCN(C)CC12CC3CC(CC(C3)C1)C2)Nc1ccnc2cc(Cl)ccc12 (stereo not given) : 16

CC(CCCNc1ccnc2ccccc12)NCc1ccc(-c2csc3ccc(F)cc23)cc1 (stereo not given) has a reported Activity of 17

Entry under test: CN(CCCNc1ccnc2cc(Cl)ccc12)CC12CC3CC(CC(C3)C1)C2 . Its Activity was 39

###

Test system: Mus musculus
Assay: Cmax in mouse at 600 mg/kg, po by UPLC-MS/MS method
Assay type: ADME, organism-based
Parameters: dose 600 mg/kg, route oral
Settings: in vivo
experimental-endpoint: Cmax (µM)
Kindly provide the numeric value in µM only, without the unit symbol.

Please fill in: Cmax reported for CC(=O)O[C@H]1C[C@H]2[C@@H]([C@H](OC(C)=O)C[C@@H]3C[C@H](N)CC[C@@]32C)[C@@H]2CC[C@H]([C@H](C)CCCNCCCCNc3ccnc4cc(Cl)ccc34)[C@@]12C = 11.9

###

Assay: Protein binding in mouse plasma at 600 mg/kg, po by ultra-centrifugation method
Assay type: ADME, organism-based
Conditions: read-out: PPB
experimental-endpoint: fraction unbound

Per the records, this molecule ( CC(=O)O[C@H]1C[C@H]2[C@@H]([C@H](OC(C)=O)C[C@@H]3C[C@H](N)CC[C@@]32C)[C@@H]2CC[C@H]([C@H](C)CCCNCCCCNc3ccnc4cc(Cl)ccc34)[C@@]12C ) has fraction unbound equal to < 0.01

###

Target: Botulinum neurotoxin type A (Clostridium botulinum)
Test: Inhibition of Clostridium botulinum BoNT/A holotoxin-mediated SNAP-25 cleavage in mouse HBG3 cell-derived motor neurons assessed as full length of SNAP-25 at 20 uM treated at 30 mins post intoxication by Western blot method relative to control
Set-up: scale not given: the % may be the effect or the level left
Each item that follows carries a reported Activity.
Numbers only; they are read as %.

A selection of reference data follows.
CN(CCCNc1ccnc2cc(Cl)ccc12)CC12CC3CC(CC(C3)C1)C2 :: 46
CC(CCCNc1ccnc2ccccc12)NCc1ccc(-c2csc3ccc(F)cc23)cc1 (stereo unspecified) :: 16
CC(=O)O[C@H]1C[C@H]2[C@@H]([C@H](OC(C)=O)C[C@@H]3C[C@H](N)CC[C@@]32C)[C@@H]2CC[C@H]([C@H](C)CCCNC(C)CCCNc3ccnc4ccccc34)[C@@]12C (mixture of isomers) :: 50

Note to self: Activity recorded for CC(=O)O[C@H]1C[C@H]2[C@@H]([C@H](OC(C)=O)C[C@@H]3C[C@H](N)CC[C@@]32C)[C@@H]2CC[C@H]([C@H](C)CCCNCCCCNc3ccnc4ccccc34)[C@@]12C was 48

Form field Activity, entry CN(CCCCCCCCNc1ccnc2ccccc12)Cc1ccc(-c2ccc(-c3ccc(C#N)cc3)s2)cc1 : 34

Activity recorded for this compound, CC(=O)O[C@H]1C[C@H]2[C@@H]([C@H](OC(C)=O)C[C@@H]3C[C@H](N)CC[C@@]32C)[C@@H]2CC[C@H]([C@H](C)CCCNCCCC(C)Nc3ccnc4ccccc34)[C@@]12C (mixture of isomers) , is 38

###

Experiment: Drug uptake in mouse serum at 600 mg/kg, po measured at 15 mins by UPLC-MS/MS method
Format: ADME, organism-based
Conditions: read-out: Drug uptake
experimental-endpoint: concentration at 0.25 h (µM)
Just the number please, in µM, no unit attached.

Reported concentration at 0.25 h for CC(=O)O[C@H]1C[C@H]2[C@@H]([C@H](OC(C)=O)C[C@@H]3C[C@H](N)CC[C@@]32C)[C@@H]2CC[C@H]([C@H](C)CCCNCCCCNc3ccnc4cc(Cl)ccc34)[C@@]12C was 11.9

###

Target: Botulinum neurotoxin type A (Clostridium botulinum)
Assay: Inhibition of Clostridium botulinum BoNT/A holotoxin-mediated SNAP-25 cleavage in mouse HBG3 cell-derived motor neurons assessed as full length of SNAP-25 at 20 uM preincubated for 30 mins followed by intoxication measured after 4 hrs by Western blot method relative to control
Parameters: scale not given: the % may be the effect or the level left
experimental-endpoint: Activity (%)
The reply should be a number in %, with the unit left off.

Example molecules with recorded Activity:
CN(CCCNc1ccnc2cc(Cl)ccc12)CC12CC3CC(CC(C3)C1)C2 :: 56
CC(CCNCCC12CC3CC(CC(C3)C1)C2)Nc1c(F)cnc2cc(Cl)ccc12 (configuration not stated) :: 29
CC(CCCNc1ccnc2ccccc12)NCc1ccc(-c2csc3ccc(F)cc23)cc1 (configuration not stated) :: 68
CC(=O)O[C@H]1C[C@H]2[C@@H]([C@H](OC(C)=O)C[C@@H]3C[C@H](N)CC[C@@]32C)[C@@H]2CC[C@H]([C@H](C)CCCNCCCC(C)Nc3ccnc4ccccc34)[C@@]12C (mixture of isomers) :: 69
CC(CCNc1ccnc2cc(Cl)ccc12)NCC12CC3CC(CC(C3)C1)C2 (configuration not stated) :: 30
CC(=O)O[C@H]1C[C@H]2[C@@H]([C@H](OC(C)=O)C[C@@H]3C[C@H](NCCCCCCNc4ccnc5cc(Cl)ccc45)CC[C@@]32C)[C@@H]2CC[C@H]([C@H](C)CCCNCCCCCCNc3ccnc4cc(Cl)ccc34)[C@@]12C :: 84

Kindly consider the entry below.
In plain terms, CC(CCN(C)CC12CC3CC(CC(C3)C1)C2)Nc1ccnc2cc(Cl)ccc12 (configuration not stated) has a documented Activity of 72

###

Molecular target: UniProt P0DPI0
Assay: Inhibition of Clostridium botulinum BoNT/A light chain using P39 as substrate preincubated for 10 mins followed by substrate addition measured after 10 mins by HPLC method
Label key: YES means IC50 under 6 µM; NO means IC50 of 6 µM or more.

N#Cc1ccc2scc(-c3ccc(CNCCCCCCNc4ccnc5ccccc45)cc3)c2c1 :: YES
N#Cc1ccc(-c2ccc(-c3ccc(CNCCCCNc4ccnc5ccccc45)cc3)s2)cc1 :: NO
CC(=O)O[C@H]1C[C@H]2[C@@H]([C@H](OC(C)=O)C[C@@H]3C[C@H](NCCCCCCNc4ccnc5cc(Cl)ccc45)CC[C@@]32C)[C@@H]2CC[C@H]([C@H](C)CCCNCCCCCCNc3ccnc4cc(Cl)ccc34)[C@@]12C :: NO
CC(=O)O[C@H]1C[C@H]2[C@@H]([C@H](OC(C)=O)C[C@@H]3C[C@H](N)CC[C@@]32C)[C@@H]2CC[C@H]([C@H](C)CCCNCCCC(C)Nc3ccnc4ccccc34)[C@@]12C (mixture of isomers) :: YES
CC(=O)O[C@H]1C[C@H]2[C@@H]([C@H](OC(C)=O)C[C@@H]3C[C@H](N)CC[C@@]32C)[C@@H]2CC[C@H]([C@H](C)CCCNCCCCNc3ccnc4ccccc34)[C@@]12C :: YES

As a next step, examine the compound that follows.
(Q) For CC(=O)O[C@H]1C[C@H]2[C@@H]([C@H](OC(C)=O)C[C@@H]3C[C@H](N)CC[C@@]32C)[C@@H]2CC[C@H]([C@H](C)CCCNCCCCNc3ccnc4cc(Cl)ccc34)[C@@]12C , is the recorded IC50 below the cut-off of 6 µM?
(A) YES
